Numbers sourced from paper PMC10620080.

Target: T1, MBP-SOA(1-331), myb+BTB (Anopheles gambiae, UniProt Q7Q6N8 1-331)
T1 sequence: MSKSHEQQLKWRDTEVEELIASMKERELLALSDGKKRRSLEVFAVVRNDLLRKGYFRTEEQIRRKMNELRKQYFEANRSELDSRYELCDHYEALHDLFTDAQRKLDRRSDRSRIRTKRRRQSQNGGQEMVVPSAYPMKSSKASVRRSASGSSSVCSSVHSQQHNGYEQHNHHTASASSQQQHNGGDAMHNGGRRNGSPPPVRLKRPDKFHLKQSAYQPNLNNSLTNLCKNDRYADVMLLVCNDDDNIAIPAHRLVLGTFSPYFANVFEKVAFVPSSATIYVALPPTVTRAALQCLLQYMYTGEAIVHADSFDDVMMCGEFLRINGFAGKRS
Assay: fluorescence polarization; FP: 10 mM Na-HEPES pH 7.4, 150 mM NaCl, 1 mM TCEP, 0.1 g/l BSA, 5% glycerol, 0.05% Triton X-100, 5 nM DNA, 20 C; EMSA: 20 mM HEPES-KOH pH 7.5, 100 mM KCl, 0.05% NP-40, room temperature
Conditions: protein: recombinant; tags: N-terminal His6-MBP; label: Cy5 on one strand; blunt
pKd: −log10 of the molar value.
Observable: pKd

INSERT INTO assay_data (binder, observable, numeric_readout) VALUES
  ('CA10 dsDNA 20mer (dsDNA) DNA 1: CACACACACACACACACACA DNA 2: TGTGTGTGTGTGTGTGTGTG', 'pKd', 7.40);
